Reference source for all entries: patent US11046699B2

In this section we review reported pIC50 values for a set of compounds.
- TESTED_SYSTEM: UniProtKB Q9P2K8
- METHOD: GCN2 enzymatic endpoint assay: phosphorylation of GFP-eIF2α measured by TR-FRET (Lanthascreen)
- Type: biochemical
- STATED_CONDITIONS: tested as described in Example 77; compound and/or hydrochloride, dihydrochloride or trifluoroacetic acid salt; read-out: IC 50 Activity
pIC50: −log10 of the molar value.

1. CNC(=O)[C@]1(C)CC[C@@H](Nc2ncc3c(Br)nn(-c4cc(OC)c5c(c4)OCC(=O)N5C)c3n2)C1 ... > 7.60

In plain terms, CC[C@@]1(C(=O)NC)CC[C@@H](Nc2ncc3c(Br)nn(-c4cc(F)c5ncccc5c4)c3n2)C1 has a documented pIC50 of > 7.60

The value of pIC50 measured for the compound CNC(=O)[C@]1(C)CC[C@@H](Nc2ncc3c(Br)nn(-c4cc(CNS(C)(=O)=O)c5nccnc5c4)c3n2)C1 turned out to be 6.70 to 7.60

// sample CNC(=O)[C@]1(C)CC[C@@H](Nc2ncc3c(Br)nn(-c4cc(CO)c5nccnc5c4)c3n2)C1 , its pIC50 was 6.70 to 7.60

The value of pIC50 measured for the compound CNC(=O)[C@]1(C)CC[C@@H](Nc2ncc3c(Br)nn(-c4cc(CN[S+](C)[O-])c5nccnc5c4)c3n2)C1 (some centres unmarked) turned out to be 6.70 to 7.60

response.value for O=C(N[C@@H]1CCOC1)[C@@H]1CC[C@@H](Nc2ncc3c(Br)nn(-c4cc(F)c5ncccc5c4)c3n2)C1 (field: pIC50) = > 7.60

// recorded pIC50 for CNC(=O)[C@]1(C)CC[C@@H](Nc2ncc3c(Br)nn(-c4cc(CO)cc([N+](=O)[O-])c4)c3n2)C1 : 6.70 to 7.60

pIC50 for CNC(=O)[C@]1(C)CC[C@@H](Nc2ncc3c(I)nn(-c4ccc(-c5nnc(C)o5)cc4)c3n2)C1 is > 7.60

* * *

// values below are reported IC50
- TESTED_SYSTEM: GCN2 (Homo sapiens)
- METHOD: GCN2 enzymatic endpoint assay: phosphorylation of GFP-eIF2α measured by TR-FRET (Lanthascreen)
- Format: biochemical
- STATED_CONDITIONS: tested as described in Example 77; compound and/or hydrochloride, dihydrochloride or trifluoroacetic acid salt; read-out: IC 50 Activity

So, CNC(=O)[C@]1(CC(F)(F)F)CC[C@@H](Nc2ncc3c(Br)nn(-c4ccc(-c5nnc(C)s5)cc4)c3n2)C1 ? Its IC50 was 25 to 200 nM

Reported IC50 for CS(=O)(=O)CCNC(=O)C12CCC(Nc3ncc4c(Br)nn(-c5ccc6ncccc6c5)c4n3)(C1)C2 was 200 to 500 nM

* * *

- TESTED_SYSTEM: GCN2 (Homo sapiens, UniProt Q9P2K8)
- Sequence (Q9P2K8 whole entry): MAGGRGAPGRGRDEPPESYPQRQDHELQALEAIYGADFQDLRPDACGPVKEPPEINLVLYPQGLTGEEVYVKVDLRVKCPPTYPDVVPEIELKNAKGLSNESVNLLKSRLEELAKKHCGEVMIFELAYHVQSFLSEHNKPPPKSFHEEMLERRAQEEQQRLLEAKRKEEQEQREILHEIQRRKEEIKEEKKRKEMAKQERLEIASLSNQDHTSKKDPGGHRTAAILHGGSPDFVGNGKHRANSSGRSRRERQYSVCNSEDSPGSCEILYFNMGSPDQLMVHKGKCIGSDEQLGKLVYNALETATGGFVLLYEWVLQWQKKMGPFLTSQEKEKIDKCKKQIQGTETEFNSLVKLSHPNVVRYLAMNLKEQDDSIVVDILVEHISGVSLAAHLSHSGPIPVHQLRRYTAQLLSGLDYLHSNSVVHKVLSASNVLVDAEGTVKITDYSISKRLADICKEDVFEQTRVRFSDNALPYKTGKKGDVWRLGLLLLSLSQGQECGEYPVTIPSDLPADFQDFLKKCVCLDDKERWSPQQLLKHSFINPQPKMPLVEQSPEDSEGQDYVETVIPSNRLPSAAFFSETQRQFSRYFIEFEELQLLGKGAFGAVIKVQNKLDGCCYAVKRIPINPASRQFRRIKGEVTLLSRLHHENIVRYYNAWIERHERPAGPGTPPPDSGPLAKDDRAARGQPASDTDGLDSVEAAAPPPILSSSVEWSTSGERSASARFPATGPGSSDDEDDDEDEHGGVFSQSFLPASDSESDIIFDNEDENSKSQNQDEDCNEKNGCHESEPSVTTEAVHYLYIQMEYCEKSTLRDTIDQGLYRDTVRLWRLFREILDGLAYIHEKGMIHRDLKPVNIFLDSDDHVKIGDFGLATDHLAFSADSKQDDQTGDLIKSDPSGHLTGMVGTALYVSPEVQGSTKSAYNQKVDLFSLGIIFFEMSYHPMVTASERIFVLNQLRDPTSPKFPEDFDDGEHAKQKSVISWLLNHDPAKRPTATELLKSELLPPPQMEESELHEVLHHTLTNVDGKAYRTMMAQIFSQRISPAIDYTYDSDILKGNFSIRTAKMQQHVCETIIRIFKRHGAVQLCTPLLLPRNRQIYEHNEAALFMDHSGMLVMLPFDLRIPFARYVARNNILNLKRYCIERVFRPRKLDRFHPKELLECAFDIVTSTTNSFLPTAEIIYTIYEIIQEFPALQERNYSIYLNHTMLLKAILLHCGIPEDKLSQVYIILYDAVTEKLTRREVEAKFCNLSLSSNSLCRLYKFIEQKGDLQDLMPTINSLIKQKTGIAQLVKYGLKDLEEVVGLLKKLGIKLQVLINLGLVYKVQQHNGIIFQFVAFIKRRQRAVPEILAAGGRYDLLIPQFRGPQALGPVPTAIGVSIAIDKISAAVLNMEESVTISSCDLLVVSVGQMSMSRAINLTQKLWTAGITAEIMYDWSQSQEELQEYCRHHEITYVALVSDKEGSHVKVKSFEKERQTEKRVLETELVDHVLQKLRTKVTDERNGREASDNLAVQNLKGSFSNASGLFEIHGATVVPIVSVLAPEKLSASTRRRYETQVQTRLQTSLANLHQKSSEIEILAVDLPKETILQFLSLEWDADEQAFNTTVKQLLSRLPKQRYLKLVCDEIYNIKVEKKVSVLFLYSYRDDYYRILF
- METHOD: GCN2 enzymatic endpoint assay: phosphorylation of GFP-eIF2α measured by TR-FRET (Lanthascreen)
- Format: biochemical
- STATED_CONDITIONS: tested as described in Example 77; compound and/or hydrochloride, dihydrochloride or trifluoroacetic acid salt; read-out: IC 50 Activity
pIC50: −log10 of the molar value.
EXPERIMENTAL_READOUT: pIC50

1. O=C(N[C@@H]1CNC[C@H]1F)[C@@H]1CC[C@@H](Nc2ncc3c(Br)nn(-c4cc(F)c5ncccc5c4)c3n2)C1 ... 6.70 to 7.60
2. O=C(N[C@H]1CC[C@@](O)(C(F)(F)F)CC1)[C@@H]1CC[C@@H](Nc2ncc3c(Br)nn(-c4ccc5ncccc5c4)c3n2)C1 ... 6.70 to 7.60
3. COCCNC(=O)[C@@H]1CC[C@@H](Nc2ncc3c(Br)nn(-c4cnc5ccc(F)cc5c4)c3n2)C1 ... 6.00 to 6.30

Noted pIC50 for CNC(=O)[C@]1(C)CC[C@@H](Nc2ncc3c(Br)nn(-c4ccc(-c5nnc(C(C)CO)o5)cc4)c3n2)C1 (stereo partly shown) , tested on GCN2 (Homo sapiens, UniProt Q9P2K8): > 7.60

Record O=C(NC1CCS(=O)(=O)CC1)[C@@H]1CC[C@@H](Nc2ncc3c(Br)nn(-c4ccc5ncccc5c4)c3n2)C1 ; system GCN2 (Homo sapiens, UniProt Q9P2K8); pIC50 = 6.70 to 7.60

The reported GCN2 (Homo sapiens, UniProt Q9P2K8) pIC50 of CNC(=O)[C@]1(C)CC[C@@H](Nc2ncc3c(Br)nn(-c4ccc5c(c4)CCN(C(=O)C4CN(C)C4)C5)c3n2)C1 is 6.70 to 7.60

CP(C)(=O)[C@@H]1CC[C@@H](Nc2ncc3c(Br)nn(-c4cc(C#N)cc(OCC5(F)CNC5)c4)c3n2)C1 on GCN2 (Homo sapiens, UniProt Q9P2K8) gives pIC50 = 6.70 to 7.60

// compound N#Cc1cc(-n2nc(Br)c3cnc(N[C@@H]4CC[C@@H](C(=O)NC5CCC(C#N)C5)C4)nc32)cc2cccnc12 (stereo partly shown) , assay GCN2 (Homo sapiens, UniProt Q9P2K8), pIC50 value: 6.70 to 7.60

* * *

Entries and their IC50
- TESTED_SYSTEM: GCN2 (Homo sapiens, UniProt Q9P2K8)
- METHOD: GCN2 enzymatic endpoint assay: phosphorylation of GFP-eIF2α measured by TR-FRET (Lanthascreen)
- Format: biochemical
- STATED_CONDITIONS: tested as described in Example 77; compound and/or hydrochloride, dihydrochloride or trifluoroacetic acid salt; read-out: IC 50 Activity

Consider the worked cases shown below.
1. CNC(=O)[C@]1(C)CC[C@@H](Nc2ncc3c(Br)nn(-c4cc(C#N)cc(CCC5CNC5)c4)c3n2)C1 ... 25 to 200 nM
2. CNC(=O)[C@]1(C)CC[C@@H](Nc2ncc3c(Br)nn(-c4cc(OCC#N)c5c(c4)OCC(=O)N5C)c3n2)C1 ... < 25 nM
3. CNC(=O)[C@]1(C)CC[C@@H](Nc2ncc3c(Br)nn(-c4ccc5nc(NC)ncc5c4)c3n2)C1 ... 25 to 200 nM

Attention now shifts to the item below.
Recorded IC50 for O=C1OCC[C@@]12CC[C@@H](Nc1ncc3c(Br)nn(-c4cc(F)c5ncccc5c4)c3n1)C2 on GCN2 (Homo sapiens, UniProt Q9P2K8) was 25 to 200 nM

* * *

- TESTED_SYSTEM: GCN2 (Homo sapiens)
- METHOD: GCN2 enzymatic endpoint assay: phosphorylation of GFP-eIF2α measured by TR-FRET (Lanthascreen)
- Assay type: biochemical
- STATED_CONDITIONS: tested as described in Example 77; compound and/or hydrochloride, dihydrochloride or trifluoroacetic acid salt; read-out: IC 50 Activity
EXPERIMENTAL_READOUT: IC50

1. O=C([C@@H]1CC[C@@H](Nc2ncc3c(Br)nn(-c4ccc5ncccc5c4)c3n2)C1)N1CCC2(CCCCO2)C1 (stereo partly shown) ... 200 to 500 nM
2. N#Cc1cc(-n2nc(Br)c3cnc(N[C@@H]4CC[C@@H](C(=O)N5CCS(=N)(=O)CC5)C4)nc32)cc2cccnc12 ... < 25 nM
3. CC(C)NC(=O)[C@]1(C)CC[C@@H](Nc2ncc3c(Br)nn(-c4cc(F)c5ncccc5c4)c3n2)C1 ... < 25 nM

Memo: O=C1CN(C(=O)[C@@H]2CC[C@@H](Nc3ncc4c(Br)nn(-c5ccc(-c6ncco6)cc5)c4n3)C2)CCN1 , reported IC50: 25 to 200 nM

* * *

- TESTED_SYSTEM: GCN2 (Homo sapiens, UniProt Q9P2K8)
- METHOD: GCN2 enzymatic endpoint assay: phosphorylation of GFP-eIF2α measured by TR-FRET (Lanthascreen)
- Type: biochemical
- STATED_CONDITIONS: tested as described in Example 77; compound and/or hydrochloride, dihydrochloride or trifluoroacetic acid salt; read-out: IC 50 Activity
- Description: The Enzymatic assay was run as an endpoint assay to quantify the activity of the serine/threonine GCN2 kinase by way of measuring phosphorylation of its natural substrate, eiF2α. The enzymatic reaction was initiated by incubating with 2 μM ATP and 80 nM of GFP labeled eiF2a substrate at room temperature and then stopped after 90 minutes with EDTA. The amount of phosphorylated eIF2α is determined by TR-FRET (Lanthascreen). […]
As shown below, each of these compounds has a reported IC50 value.

1) COCCNC(=O)[C@]1(C)CC[C@@H](Nc2ncc3c(Br)nn(-c4ccc5ncccc5c4)c3n2)C1 ... 25 to 200 nM
2) CNC(=O)C1(C)CC[C@@H](Nc2ncc3c(Br)nn(-c4ccc5nc(C)cc(Cl)c5c4)c3n2)C1 (stereo partly shown) ... 25 to 200 nM

Form field IC50 for item CNC(=O)[C@]1(C)CC[C@@H](Nc2ncc3c(Br)nn(-c4cc(N5CCNCC5=O)c5ncccc5c4)c3n2)C1 on GCN2 (Homo sapiens, UniProt Q9P2K8): 25 to 200 nM

Known value: GCN2 (Homo sapiens, UniProt Q9P2K8) IC50 of the compound N#Cc1cc(-n2nc(Br)c3cnc(N[C@@H]4CC[C@@H](C(=O)N[C@@H]5CNC[C@@H]5F)C4)nc32)cc2cccnc12 equals < 25 nM
